TEST NAME: in vitro
CONDITION INFO: human, Caco-2, pH 7.2
EXPERIMENTAL ENDPOINT: Papp A→B at 2 h, 2 μM (×10⁻⁶ cm/s)
Give the number; ×10⁻⁶ cm/s is assumed, so skip it.

Complete the entry with Papp A→B at 2 h, 2 μM for Cc1ccccc1Oc1cc(-n2c(=O)cc(C(F)(F)F)[nH]c2=O)c(F)cc1C#N 3
